Test system: PfAP2-HC AP2 domain (GST-tagged)
Experiment: gcPBM binding intensity (ln(normalized median fluorescence intensity)); higher = stronger DNA binding
Over roughly 25,000 sequences, “ln(normalized median fluorescence intensity)” has its median near 9.7; the highest 2% begin near 11. For the sample, the highest values were picked, then their nearest neighbours and some sequences at random.
property: gcPBM binding intensity (ln)
// print number alone

Item CATATACTCGGACACACACACACACCGACAAAAAAA [CACACA_site4433] has what recorded gcPBM binding intensity (ln)?
11.1

Item ATATAAGAAATAAAGAAAAATGTGTTTTTTTTTTTT [XGTACX_negctrl_site396] has what recorded gcPBM binding intensity (ln)?
9.6

Item AGGAAGGAAATAAATCAACACACATATATTATATAT [CACACA_site8678] has what recorded gcPBM binding intensity (ln)?
9.87

Item AAGCATTTTTTTTAAAGCCTGTTCATCATCCTTACC [CACACA_negctrl_site129] has what recorded gcPBM binding intensity (ln)?
9.44

Item GAAAAATTAAAACCTACACACACATTTAAAAAAAAA [CACACA_site9005] has what recorded gcPBM binding intensity (ln)?
11

Item GTATGAAATTATAATAGTACATATAAATAAAAAAAA [XGTACX_site8955] has what recorded gcPBM binding intensity (ln)?
9.85

Item TTTTTGTAATGACACACACACAAACAGAAAAAATAA [CACACA_site7062] has what recorded gcPBM binding intensity (ln)?
10.2

Item AGTATACTCGGACACACACACACATATATATATATA [CACACA_site5031] has what recorded gcPBM binding intensity (ln)?
11.7

Item TATATATATATGTGTACACATTTGTCAGATTATATA [CACACA_site4813] has what recorded gcPBM binding intensity (ln)?
9.79

Item AACACATACAAACACACACACAAAAAAAAAAAAAAA [CACACA_site393] has what recorded gcPBM binding intensity (ln)?
10.4

Item TAAATAAATATATATTCACACACAAACATATATATA [CACACA_site9332] has what recorded gcPBM binding intensity (ln)?
10.5

Item TTCACTAATAAATACGCACACATATACAGATATATA [CACACA_site4887] has what recorded gcPBM binding intensity (ln)?
9.94

Item ATGGTACATACATACACACACACAAAAAAAAAAAAA [CACACA_site1578] has what recorded gcPBM binding intensity (ln)?
11.3

Item AAAATTAAAACCTACACACACATTTAAAAAAAAAAA [CACACA_site3068] has what recorded gcPBM binding intensity (ln)?
10.1

Item AATACACCCAGACACACACACAAAAAAAAAAAAAAA [CACACA_site513] has what recorded gcPBM binding intensity (ln)?
10.1

Item TAATACTTAGAGAAAAGTACGTATGAACTTATGTAA [XGTACX_site5504] has what recorded gcPBM binding intensity (ln)?
9.59

Item CTTATACATTATTAACGTACATGTTATATGAATAAC [XGTACX_site5752] has what recorded gcPBM binding intensity (ln)?
9.6

Item TTAAATAAAAAAATAACACACATATAAATCTATATG [CACACA_site7482] has what recorded gcPBM binding intensity (ln)?
9.75

Item CTATTTCAGAAACACACACACACAAACAAACATATA [CACACA_site978] has what recorded gcPBM binding intensity (ln)?
10.4

Item AAACAAAAAATTTAAAGTACAAAAATTATGATTGTT [XGTACX_site465] has what recorded gcPBM binding intensity (ln)?
9.62

Item TTATTTATTTATTATAGTTCACTTGAAAATACAAGA [CACACA_negctrl_site1480] has what recorded gcPBM binding intensity (ln)?
9.38

Item AAGAAATAAATACATACACACATATATATATATATA [CACACA_site3362] has what recorded gcPBM binding intensity (ln)?
10.3

Item AAGAATTATTTTTTATGTACTTATATGTCAATTTTC [XGTACX_site6676] has what recorded gcPBM binding intensity (ln)?
9.68

Item AGAGAATAAATATAAAGTACATATATAAATATATAT [XGTACX_site5055] has what recorded gcPBM binding intensity (ln)?
9.7

Item AAAACAAACGGACACACACACATATATATATATATA [CACACA_site5924] has what recorded gcPBM binding intensity (ln)?
10.5

Item CAAAATAAAAATAACACACACATTTATTTATATACA [CACACA_site6679] has what recorded gcPBM binding intensity (ln)?
10.1

Item TTGTATATATTTATATGTACATATATTACTTTTGCT [XGTACX_site2449] has what recorded gcPBM binding intensity (ln)?
9.83

Item TAATTTTTTTTAAACACACACATTACATTCAAAAAT [CACACA_site127] has what recorded gcPBM binding intensity (ln)?
10.1

Item AAAAAAAACAGACACACACACAAATATATAAAAATA [CACACA_site1172] has what recorded gcPBM binding intensity (ln)?
10.6

Item ATTAAATCTATATATACACACATGTTTGGTATATTC [CACACA_site2657] has what recorded gcPBM binding intensity (ln)?
9.87

Item AAAAATTATGGACACACACACATATATATATATATT [CACACA_site4717] has what recorded gcPBM binding intensity (ln)?
10.3

Item AATAAATATATATTCACACACAAACATATATATATA [CACACA_site4023] has what recorded gcPBM binding intensity (ln)?
10

Item CTATTTCATGGACACACACACACAAACAAACATATA [CACACA_site4696] has what recorded gcPBM binding intensity (ln)?
11.1

Item TATTAATTATTATGACATACATATCAGTTATTAAAA [CACACA_negctrl_site600] has what recorded gcPBM binding intensity (ln)?
9.35

Item CTATTTCATAAACACACACACACAAACAAACATATA [CACACA_site8234] has what recorded gcPBM binding intensity (ln)?
11.5

Item ATAAATGACAGACACACACACAAAAAAAAAAAACAA [CACACA_site2626] has what recorded gcPBM binding intensity (ln)?
11.5

Item ATGAAAAAATTTATATGTACTTAAAATATAATCATA [XGTACX_site1228] has what recorded gcPBM binding intensity (ln)?
9.33

Item GGTACATACAAACACACACACAAAAAAAAAAAAATA [CACACA_site1577] has what recorded gcPBM binding intensity (ln)?
10.3

---

Tested on: PfAP2-HC AP2 domain (GST-tagged)
Assay: gcPBM binding intensity (ln(normalized median fluorescence intensity)); higher = stronger DNA binding
In all, about 25,000 sequences were measured (“ln(normalized median fluorescence intensity)”: median about 9.7, highest 2% from about 11 on). Shown is part of a subset that was picked to be rich in the highest values.
Exercise: for every item that follows, state its recorded gcPBM binding intensity (ln).
// print number alone

Item GAAATAATTTCATATACACACATATACATACATACA [CACACA_site1358] has what recorded gcPBM binding intensity (ln)?
9.95

Item AAATGTTCTTAAAAATGAATAATATATATATATATA [CACACA_negctrl_site796] has what recorded gcPBM binding intensity (ln)?
9.41

Item ACGTTAAAAACAAGTTGTACACAATAAATTATTCTT [XGTACX_site6321] has what recorded gcPBM binding intensity (ln)?
9.75

Item AAAAGAAAATAAGAAACACACAAAAATATATAAAAA [CACACA_site3697] has what recorded gcPBM binding intensity (ln)?
9.99

Item AAAAAAAAAAAAAACACACACACAAAAAAAAATATA [CACACA_site1104] has what recorded gcPBM binding intensity (ln)?
11.3

Item AAAAAAAAAACACGCGCACACACACCCACCCACCCA [CACACA_site8689] has what recorded gcPBM binding intensity (ln)?
10.9

Item AAAAAAAAAAAAAACACACATACACGCCCACCCATA [CACACA_site3391] has what recorded gcPBM binding intensity (ln)?
10.4

Item TTTTTTTTTCTCCATACACACTTGATAAAACTTTTT [CACACA_site4512] has what recorded gcPBM binding intensity (ln)?
9.64

Item TATAATTTAAAATACACACACATATATATAATATAT [CACACA_site2000] has what recorded gcPBM binding intensity (ln)?
10.1

Item AGATAGCTATTAAAAAGTACAAAAAAATATATATAT [XGTACX_site6289] has what recorded gcPBM binding intensity (ln)?
9.71

Item AAAAAAACAACATGCACACGCACACCCAAAAAAAGC [CACACA_site72] has what recorded gcPBM binding intensity (ln)?
10.7

Item AGAAAAAAACAACATGCACACGCACCCACAAAAAAA [CACACA_site7908] has what recorded gcPBM binding intensity (ln)?
10.4

Item AAAAATTAAATAAATTTACACACTAATAATTACATA [CACACA_site8260] has what recorded gcPBM binding intensity (ln)?
9.63

Item CATATACATAAACACACACACACATAAATAAATATA [CACACA_site4864] has what recorded gcPBM binding intensity (ln)?
10.6

Item TACATAAATTAAAACACACACACACTAATAAAAAAA [CACACA_site8712] has what recorded gcPBM binding intensity (ln)?
11.3

Item TTTTTCAGATCCTATATAGTATCATATAAATTCCAT [CACACA_negctrl_site56] has what recorded gcPBM binding intensity (ln)?
9.39

Item AAATATAAACGGCACACACACAAAAAAAGAAAAAAA [CACACA_site649] has what recorded gcPBM binding intensity (ln)?
11

Item TACACGTTCTACATTTGTACTTAATTTATACATAAG [XGTACX_site1579] has what recorded gcPBM binding intensity (ln)?
9.79

Item AGGGTTACAAGAGGAACACACAAAAAAATAAATAAA [CACACA_site1436] has what recorded gcPBM binding intensity (ln)?
10
